system: MS2 coat protein; test: apparent KD of MS2 coat protein; designed switch direction (-1 OFF switch, 1 ON switch): -1; higher = weaker reporter binding; details: input ligand: none
measured-attribute: apparent KD of MS2 coat protein
Record the result as a number with its unit.

Solved entries (count: 2):
sequence-entry	apparent KD of MS2 coat protein
UCAAUUUUGACAGGAUAUAGUUUUUGUUUUUCUCUAGAAGGGUCUUUGCACAUGAGGAUCACCCAUGUUCUUUUUAUUUGCAUU [JR_ExcNG1_Sub015] (Eterna round: R96, puzzle: Exclusion NG 1)	63.3 nM
UUUAAAUGAGGAUAUAGGAUCUUAGACAUGAGGAUCACCCAUGUGAAAUCAGACCUAGUCCUAGAAGGCGUAUGAC [Eternabot (L1) Solution 100] (Eterna round: R97, puzzle: Exclusion 5)	12.4 nM

Each of the following entries comes with a recorded value; kindly state apparent KD of MS2 coat protein for each.
1. UCGGGCGCAGGAUAUGCCUUCCGGUACAUGAGGAUCACCCAUGUCGGGCAGUGCUGCGGAGUAGAAGGGCGUUGAG [Eternabot (L2) Solution 74] (Eterna round: R97, puzzle: Exclusion 5)
2. UUACUCCUCGCUUGGUCACACAUGAGGAUCACCCAUGUGGGAUGCCAUGGCGUCUCAUCAAGCUUCUUUUGCUCGUG [Eternabot (Original) Solution 26] (Eterna round: R97, puzzle: Sensor, turn-off variant 1)

result:
16.6 nM
23.8 nM

###

test system: MS2 coat protein; assay: apparent KD of MS2 coat protein; designed switch direction (-1 OFF switch, 1 ON switch): 1; higher = weaker reporter binding; conditions: input ligand: none
Exercise: state measured apparent KD of MS2 coat protein for each of the sequences provided.

As a guide, the following entries are already answered.
sequence-entry	meas-value
UGGCUGGUGCUAGGAUAUGCAUGAGGCAUCCUCGUAGAAGGAGCACGACAUGAGGAUCACCCAUGUAGCCGUCCGUAGACGGCU [salish99_SSNG1_r04_010] (Eterna round: R96, puzzle: Same State NG 1)	1060 nM
GUUACAUGAGGAUCACCCAUGUAUGUGUGGGAGUAAGUGUCUUAGGAUAUCUAUUAUUUAAUUUGAGAGAAGGAAGAUUGUUGU [JMF's solution 28] (Eterna round: R96, puzzle: Same State NG 3)	107 nM
CUCCAUUGGGUAGGAUAUCUAGGAUAUGGGAAAGACUAAGUCUGUAGGUCACCUAACCCAGAUGGAGAGAAGGACCCAACUCUC [pwkr ssNG2 2FMN + F9.41] (Eterna round: R96, puzzle: Same State NG 2)	12.3 nM
AACAAGCACAUGAGGAUCACCCAUGUGAGAAUAAAACCCUCAUAGGAUAUCCGCGGUUAACUCCCGGAGAAGGGUGAGACUCCU [Edtiedus] (Eterna round: R96, puzzle: Same State NG 3)	390 nM
AUUAUUGAUGCAGGAUAUGAUUAACAUGAGGAUCACCCAUGUGGUGUUGUGAGUAAGGAGAGUGAUCAGAAGGGCAUUUUUUUU [JMF's solution 23] (Eterna round: R96, puzzle: Same State NG 2)	436 nM

Would you mind giving apparent KD of MS2 coat protein for every sequence in the list below?
1. UUAACAUGAGGAUCACCCAUGUAUACGGAGUUUGCAAUUUGACAGGAUAUUGAAGAUCUAUAUAGCAAGAAGGGUCGUUAGUCU [JR_SSNG3_Sub006] (Eterna round: R96, puzzle: Same State NG 3)
2. UUAAUGAUGUAAGGAUAUACAUGAGGAUUUCUCGUAGAAGGUACAGGACAUGAGGAUCACCCAUGUAUCGCUCCGUAGAGCGUA [JL SSNG1 1.11] (Eterna round: R96, puzzle: Same State NG 1)
3. GUAGCAUACCGAGGAUAUUCAUUACAUGAGGAUCACCCAUGUUUAAAUAAUAGGCGAAAGCCUUGGGAGAAGGCGGAAUGCUAC [Xeonanis - 20 Mod71] (Eterna round: R96, puzzle: Same State NG 2)
4. CCGCAUUCAGCAGGAUAUCUCAACCGGAAGAUGAGAGAAGGGUUGAUUACAUGAGGAUCACCCAUGUCCAAGCAUGCGAGAGCC [Eternabot solution 23] (Eterna round: R96, puzzle: Same State NG 1)
5. CCAAAUUGAAUCCACAUGAGGAUCACCCAUGUCCAACCGGUCUAGGAUAUCACAGCAAGCGCGUGUGAGAAGGAGAAAACAAGC [Eternabot solution 34] (Eterna round: R96, puzzle: Same State NG 3)
6. GUAGCAUACCGAGGAUAUUCAUACAUGAGGAUCACCCAUGUUAUUAUAGGACGAUUACGUCCUUGGGAGAAGGCGGAAUGCUAC [Xeonanis - 20 Mod29] (Eterna round: R96, puzzle: Same State NG 2)
7. ACAUAGGUUUCAGGAUAUGGGUAAAUUCCCAACAUGAGGAUCACCCAUGUCCGUUGGGAUAACAUCCAGAAGGGAAGCCACAUA [MOD2 Eternabot Solution 1 (Score 87.5)] (Eterna round: R96, puzzle: Same State NG 2)
8. GUACAUAUCGUAGGAUAUCACGUCGAAUAGACGUGAGAAGGACGGUCCCACAUGAAUAUUAAUACAUGAGGAUCACCCAUGUAC [MOD SSNG 1/18-A1 by Brourd] (Eterna round: R96, puzzle: Same State NG 1)

result:
["44.7 nM", "356 nM", "14 nM", "188 nM", "43.4 nM", "15.1 nM", "390 nM", "43 nM"]

Batch of 4 sequences: report apparent KD of MS2 coat protein for each.
1. AAGAAAUCCGCAGGAUAUCCUAAGCCGGGCUUAGGAGAAGGGUGGCCACAUGAGGAUCACCCAUGUAAAAGCUGAAUCACAGCC [Aerququ] (Eterna round: R96, puzzle: Same State NG 1)
2. CCGAUUGAUGGAGGAUAUGGAGCCUUAUUGGCUCCAGAAGGCUAAUAACAUGAGGAUCACCCAUGUCGGCGGUCUAAUGACCGA [Eli NG1ss - 54] (Eterna round: R96, puzzle: Same State NG 1)
3. ACCCGCGACGGAGGAUAUGGGCACUCGGCGAAAUAAACCGCCAUAACAUGAGGAUCACCCAUGUCCCAGAAGGCCGUCGCAAUC [Anlelaen] (Eterna round: R96, puzzle: Same State NG 2)
4. UUAAUUAAUUAAUUAUACAUGAGGAUCACCCAUGUAAGUGAUCAGGAUAUCAGCUCGAUUAGAGCUGAGAAGGGAUACAUGUAA [SSNG3/13-A2] (Eterna round: R96, puzzle: Same State NG 3)

result:
523 nM
69.1 nM
473 nM
191 nM

query: Form entry - test system: MS2 coat protein; read-out: apparent KD of MS2 coat protein; sequence: GGUCGGACUCAACAUGAGGAUCACCCAUGUGCGGAAACGCCAUAGGAUAUCUGUCCGAAAAGGUCAGAGAAGGGUGAACCGACC [Fiskers NG3ss - 66] (Eterna round: R96, puzzle: Same State NG 3)
result: 471 nM

###

tested on: MS2 coat protein; assay: apparent KD of MS2 coat protein; designed switch direction (-1 OFF switch, 1 ON switch): 1; higher = weaker reporter binding; conditions: input ligand: FMN 200 uM
Would you mind telling me the reported apparent KD of MS2 coat protein of each entry?
One number for each entry, in nM.

Some solved entries appear below for comparison.
sequence-entry	measured-attribute	meas-value
GGUAUCGACACAGGAUAUGCUAUCCUUUGGGUAGCAGAAGGGUGAACAUGAGGAUCACCCAUGUAGGUGCCAGGGCGUGAGCCC [JL SSNG1 1.79] (Eterna round: R96, puzzle: Same State NG 1)	apparent KD of MS2 coat protein	368
AGCUAUUAAUCAGGAUAUGGUGACAUGAGGAUCACCCAUGUAUAGAUGAUUAAAUGUGGUCUAAACUAGAAGGGAUUACUAACA [SameState NG2 #54] (Eterna round: R96, puzzle: Same State NG 2)	apparent KD of MS2 coat protein	156
GAGGGACAGACCAACAUGAGGAUCACCCAUGUCCUCGCAGGUCAGGAUAUUAUGAGGAUCACCCGUGAGAAGGGACGGUGAACC (Eterna round: R96, puzzle: Same State NG 3)	apparent KD of MS2 coat protein	606
AGCUAUUAAUCAGGAUAUGGUCACAUGAGGAUCACCCAUGUGUAGAUGAUAAAAUGUGGUCUACACUAGAAGGGAUUGCUAACA [SameState NG2 #60] (Eterna round: R96, puzzle: Same State NG 2)	apparent KD of MS2 coat protein	524
GCUACCAAUGAAGCCAACAUGAGGAUCACCCAUGUAUGUUGGCAGGAUAUCGAUUGCAAAGCGAUCGAGAAGGGCUAAGGUAGC [Mat - Same State NG 3 - JL Mod - D87] (Eterna round: R96, puzzle: Same State NG 3)	apparent KD of MS2 coat protein	107
GUUGAGAAAUGAGGAUAUGCAUGGAAGACACAUGAGGAUCACCCAUGUGGGAGGGAAACCAGGAGGUAGAAGGCAUUGGGAAAC [AK SSNG2-V2-24] (Eterna round: R96, puzzle: Same State NG 2)	apparent KD of MS2 coat protein	35.7

For every item below, please supply its apparent KD of MS2 coat protein.
1. ACAUGAAAUUGAGGAUAUUUUGUACCUACAUGUGACAUGAGGAUCACCCAUGUGGUAAGUAUAAGAAAGAAGGCAAAGAUAUGU [Equivalence 7 - Jieux - Same State NG 2] (Eterna round: R96, puzzle: Same State NG 2)
2. UGUUGUAUUACAGGAUAUCUAUUGUUUUUAUGUAGAGAAGGGUAUUCACAUGAGGAUCACCCAUGUAUAUACGAGGAAGUUGUG [JMF's solution 85] (Eterna round: R96, puzzle: Same State NG 1)
3. GCCAUCGUGUGAGGAUAUGGCACCGAAACGGUGCCAGAAGGCAUGUCAAUUGACAUGAGGAUCACCCAUGUAUUAGCGAUGGCA [Mat - Same State NG 1 - JL mod - D86] (Eterna round: R96, puzzle: Same State NG 1)

result:
[25.6, 53.2, 181]
